# TARGET DESC: T1, recombinant human TIGIT (human, UniProt Q495A1 22-141, limits assumed)
# T1 construct: recombinant human TIGIT used in Carterra SPR; also called hTIGIT
# T1 sequence (looked up): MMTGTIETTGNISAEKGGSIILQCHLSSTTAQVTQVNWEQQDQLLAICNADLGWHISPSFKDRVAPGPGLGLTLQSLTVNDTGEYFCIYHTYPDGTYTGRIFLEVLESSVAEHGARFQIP
# TEST METHOD NOTES: SPR Carterra, average
// values below are reported kon
Value expressed in M⁻¹ s⁻¹; do not type the unit.

TIGIT-SC126 (Fc fusion, VHH-Fc fusion in assay) VHH: EVQLVESGGGLVQPGGSLRLSCAASGSIFSGNVMGWFRQAPGKERELVAAISNSASSTVYADSVKGRFTISADNSKNTAYLQMNSLKPEDTAVYYCARDWNLFDYWGQGTLVTVSS
871000
TIGIT-SC164 (Fc fusion, VHH-Fc fusion in assay) VHH: EVQLVESGGGLVQPGGSLRLSCAASGFTFDRSWMGWFRQAPGKEREFVASVLRGGYTWYADSVKGRFTISADNSKNTAYLQMNSLKPEDTAVYYCTTEGSGWRNWGQGTLVTVSS
52800
TIGIT-SC162 (Fc fusion, VHH-Fc fusion in assay) VHH: EVQLVESGGGLVQPGGSLRLSCAASGNTFSGGFMGWFRQAPGKEREWVASVLRGGYTWYADSVKGRFTISADNSKNTAYLQMNSLKPEDTAVYYCTTDRAIGVRPLFDHWGQGTLVTVSS
622000

Let's switch to this binder now.
## Task Entry TIGIT-SC106 (Fc fusion, VHH-Fc fusion in assay) VHH: EVQLVESGGGLVQPGGSLRLSCAASGFPFDDYAMGWFRQAPGKERELVAVIRWTGMSTHYADSVKGRFTISADNSKNTAYLQMNSLKPEDTAVYYCAKGIAVAGAFDYWGQGTLVTVSS : reported kon = ?
## Result 95500
